# subject-of-test: human PDGFRβ (Homo sapiens (Human), UniProt P09619)
# Sequence (P09619 561-1106): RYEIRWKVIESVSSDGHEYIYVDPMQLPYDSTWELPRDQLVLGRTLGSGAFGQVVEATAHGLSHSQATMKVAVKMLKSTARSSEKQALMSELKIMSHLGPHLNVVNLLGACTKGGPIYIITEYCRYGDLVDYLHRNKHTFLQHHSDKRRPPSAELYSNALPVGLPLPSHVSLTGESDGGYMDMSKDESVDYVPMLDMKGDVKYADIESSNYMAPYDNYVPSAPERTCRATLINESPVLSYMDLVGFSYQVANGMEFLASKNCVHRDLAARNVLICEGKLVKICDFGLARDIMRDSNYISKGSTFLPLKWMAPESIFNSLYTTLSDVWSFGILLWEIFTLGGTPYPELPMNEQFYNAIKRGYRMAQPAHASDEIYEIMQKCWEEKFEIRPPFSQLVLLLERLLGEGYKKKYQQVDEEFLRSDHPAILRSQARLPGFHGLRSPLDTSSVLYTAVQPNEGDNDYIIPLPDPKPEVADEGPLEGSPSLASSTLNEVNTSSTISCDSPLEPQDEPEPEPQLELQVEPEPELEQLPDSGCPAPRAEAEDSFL
# experiment-summary: PDGFRβ kinase assay (PDGFRβ-HTRF)
# Format: biochemical
# study-conditions: 10 μM ATP; some mean values from multiple determinations
Measured pIC50, listed per entry.
Notebook: values listed as pIC50 are -log10 of the concentration (mol/L).

[in] Bench note: what pIC50 did Cc1ccc(O)cc1Nc1ccnc2c1C(=O)Nc1cc(CNC3CCC3)ccc1N2 show?
[out] 8.54

[in] Bench note: what pIC50 did CCn1ccc(CNCc2ccc3c(c2)NC(=O)c2c(Nc4cc(O)ccc4C)ccnc2N3)n1 show?
[out] 8.46

[in] Bench note: what pIC50 did Cc1cc(F)c(Nc2ccnc3c2C(=O)Nc2cc(CN(C)CCCO)ccc2N3)cc1O show?
[out] 8.76

[in] Bench note: what pIC50 did CCN(CC)C(=O)c1ccc2c(c1)NC(=O)c1c(Nc3cc(O)c(C)cc3F)ccnc1N2 show?
[out] 7.84

[in] Bench note: what pIC50 did Cc1ccc(O)cc1Nc1ccnc2c1C(=O)Nc1cc(CNCC(C)(C)N(C)C)ccc1N2 show?
[out] 8.11

[in] Bench note: what pIC50 did CCC(CC)CNCc1ccc2c(c1)NC(=O)c1c(Nc3cc(O)ccc3C)ccnc1N2 show?
[out] 8.30

[in] Bench note: what pIC50 did CCN(Cc1ccc2c(c1)NC(=O)c1c(Nc3cc(O)c(C)cc3F)ccnc1N2)CC(C)O (racemic) [Example 204] show?
[out] 8.77

[in] Bench note: what pIC50 did Cc1cc(F)c(Nc2ccnc3c2C(=O)Nc2cc(CN4CCCC(OCC(F)(F)F)C4)ccc2N3)cc1O (racemic) show?
[out] 8.45

Continuing:
[in] Bench note: what pIC50 did Cc1ccc(O)cc1Nc1ccnc2c1C(=O)Nc1cc(CN3CCC(O)CC3)ccc1N2 show?
[out] 8.61

[in] Bench note: what pIC50 did COc1cccc(CNCc2ccc3c(c2)NC(=O)c2c(Nc4cc(O)ccc4C)ccnc2N3)c1 show?
[out] 8.68

[in] Bench note: what pIC50 did COc1ccc(NCc2ccc3c(c2)NC(=O)c2c(Nc4cc(O)ccc4C)ccnc2N3)cc1F show?
[out] 7.74

[in] Bench note: what pIC50 did Cc1ccc(O)cc1Nc1ccnc2c1C(=O)Nc1cc(CNCCOCC3CCCO3)ccc1N2 (stereo not shown) show?
[out] 8.12

[in] Bench note: what pIC50 did Cc1cc(F)c(Nc2ccnc3c2C(=O)Nc2cc(CN[C@H]4CC[C@H](O)CC4)ccc2N3)cc1O show?
[out] 8.80

[in] Bench note: what pIC50 did Cc1ccc(O)cc1Nc1ccnc2c1C(=O)Nc1cc(CNCc3cccc(F)c3F)ccc1N2 show?
[out] 8.45

[in] Bench note: what pIC50 did Cc1ccc(O)cc1Nc1ccnc2c1C(=O)Nc1cc(CNCCCOC(C)C)ccc1N2 show?
[out] 8.76

[in] Bench note: what pIC50 did CCOC(=O)[C@H]1C[C@@H](NCc2ccc3c(c2)NC(=O)c2c(Nc4cc(O)c(C)cc4F)ccnc2N3)C1 show?
[out] 9.20

---

# subject-of-test: human PDGFRβ (Homo sapiens (Human))
# experiment-summary: PDGFRβ kinase assay (PDGFRβ-HTRF)
# Type: biochemical
# study-conditions: 10 μM ATP; some mean values from multiple determinations
readout-kind: log10 of IC50 (log10 of the value in nM)
Note: values are log10 of IC50 expressed in nM.

Here are 5 compounds together with their reported answers.
[in] Bench note: what log10 of IC50 did CCOCCN(CC)Cc1ccc2c(c1)NC(=O)c1c(Nc3cc(O)c(C)cc3F)ccnc1N2 show?
[out] 0.05

[in] Bench note: what log10 of IC50 did COCCOCCOCCOCCOCCOCCOCCOCCNCc1ccc2c(c1)NC(=O)c1c(Nc3cc(O)c(C)cc3F)ccnc1N2 show?
[out] 1.40

[in] Bench note: what log10 of IC50 did Cc1cc(F)c(Nc2ccnc3c2C(=O)Nc2cc(CN4CCN5C(=O)C(C)NC(=O)C5C4)ccc2N3)cc1O (racemic) show?
[out] 0.28

[in] Bench note: what log10 of IC50 did Cc1ccc(O)cc1Nc1ccnc2c1C(=O)Nc1cc(CNCC(O)CO)ccc1N2 (stereo not drawn) show?
[out] 0.18

[in] Bench note: what log10 of IC50 did Cc1cc(F)c(Nc2ccnc3c2C(=O)Nc2cc(CN[C@@H](CO)C(N)=O)ccc2N3)cc1O show?
[out] 0.64

Continuing:
[in] Bench note: what log10 of IC50 did COC1CCCN(Cc2ccc3c(c2)NC(=O)c2c(Nc4cc(O)c(C)cc4F)ccnc2N3)C1 (racemic) show?
[out] 0.57

[in] Bench note: what log10 of IC50 did Cc1cc(F)c(Nc2ccnc3c2C(=O)Nc2cc(CNC4CC(O)C4)ccc2N3)cc1O (stereo not drawn) show?
[out] 0.18

[in] Bench note: what log10 of IC50 did Cc1ccc(O)cc1Nc1ccnc2c1C(=O)Nc1cc(CNCC(F)(F)F)ccc1N2 show?
[out] 0.96

[in] Bench note: what log10 of IC50 did Cc1cc(F)c(Nc2ccnc3c2C(=O)Nc2cc(CN(C)C[C@H](C)O)ccc2N3)cc1O show?
[out] 0.19

[in] Bench note: what log10 of IC50 did CCN(C)Cc1ccc2c(c1)NC(=O)c1c(Nc3cc(O)c(C)cc3F)ccnc1N2 show?
[out] -0.31

[in] Bench note: what log10 of IC50 did Cc1ccc(O)cc1Nc1ccnc2c1C(=O)Nc1cc(CNC(C)C)ccc1N2 show?
[out] 0.31

[in] Bench note: what log10 of IC50 did Cc1cc(F)c(Nc2ccnc3c2C(=O)Nc2cc(CN4CCC5(O)CCCCC5C4)ccc2N3)cc1O (stereo not drawn) show?
[out] 0.08

---

# subject-of-test: UniProtKB P09619
# experiment-summary: PDGFRβ kinase assay (PDGFRβ-HTRF)
# Type: biochemical
# study-conditions: 10 μM ATP; some mean values from multiple determinations
Could you mark each record y if its IC50 falls strictly under 4 nM, and n if it equals or exceeds it?

[in] Please determine if Cc1ccc(O)cc1Nc1ccnc2c1C(=O)Nc1cc(CN3CCN(C)CC3)ccc1N2 [Example 43] is below 4 nM in terms of IC50.
[out] y

[in] Please determine if Cc1ccc(O)cc1Nc1ccnc2c1C(=O)Nc1cc(CNC(C)c3ccco3)ccc1N2 (stereo not shown) [Example 132] is below 4 nM in terms of IC50.
[out] y

[in] Please determine if Cc1cc(F)c(Nc2ccnc3c2C(=O)Nc2cc(CN4CCC[C@H](N)C4)ccc2N3)cc1O [Example 219] is below 4 nM in terms of IC50.
[out] y

[in] Please determine if Cc1cc(F)c(Nc2ccnc3c2C(=O)Nc2cc(CN[C@H]4C[C@H](C(=O)O)C4)ccc2N3)cc1O [Example 195] is below 4 nM in terms of IC50.
[out] y

[in] Please determine if Cc1cc(F)c(Nc2ccnc3c2C(=O)Nc2cc(CN4CCC(N(C)C)CC4)ccc2N3)cc1O [Example 211] is below 4 nM in terms of IC50.
[out] y

[in] Please determine if Cc1ccc(O)cc1Nc1ccnc2c1C(=O)Nc1cc(CNC3CC3)ccc1N2 [Example 151] is below 4 nM in terms of IC50.
[out] y

[in] Please determine if Cc1cc(F)c(Nc2ccnc3c2C(=O)Nc2cc(C(=O)N4CCC(O)CC4)ccc2N3)cc1O [Example 178] is below 4 nM in terms of IC50.
[out] n

[in] Please determine if Cc1ccc(O)cc1Nc1ccnc2c1C(=O)Nc1cc(CNC3CCOC3)ccc1N2 (stereo not shown) [Example 99] is below 4 nM in terms of IC50.
[out] y

---

# subject-of-test: human PDGFRβ (Homo sapiens (Human))
# experiment-summary: PDGFRβ kinase assay (PDGFRβ-HTRF)
# Assay type: biochemical
# study-conditions: 10 μM ATP; some mean values from multiple determinations
# Procedure: The PDGFRβ-inhibitory activity of the inventive compounds was determined in the PDGFRβ-HTRF assay described hereinafter. […] Subsequently, the amount of the phosphorylated substrate was evaluated by measuring the resonance energy transfer from the PT66-Eu chelate to the streptavidin-XL665. […] The IC50 values were calculated by a 4-parameter fit.
Measured log10(IC50), listed per entry.
Note: values are log10 of IC50 expressed in nM.

Here are 5 compounds together with their reported answers.
[in] Bench note: what log10(IC50) did N#Cc1ccc2c(c1)NC(=O)c1c(Nc3cc(O)c(F)c(F)c3)ccnc1N2 show?
[out] 0.68

[in] Bench note: what log10(IC50) did CCC(CC)NCc1ccc2c(c1)NC(=O)c1c(Nc3cc(O)ccc3C)ccnc1N2 show?
[out] 0.37

[in] Bench note: what log10(IC50) did N#Cc1ccc2c(c1)NC(=O)c1c(Nc3cc(O)c(Cl)cc3F)ccnc1N2 show?
[out] 0.66

[in] Bench note: what log10(IC50) did CCN(CCN)Cc1ccc2c(c1)NC(=O)c1c(Nc3cc(O)c(C)cc3F)ccnc1N2 show?
[out] -0.14

[in] Bench note: what log10(IC50) did Cc1cc(F)c(Nc2ccnc3c2C(=O)Nc2cc(C(N)=O)ccc2N3)cc1O show?
[out] 0.87

Continuing:
[in] Bench note: what log10(IC50) did Cc1cc(F)c(Nc2ccnc3c2C(=O)Nc2cc(CN4CC[C@@H](N(C)C)C4)ccc2N3)cc1O show?
[out] 0.53

[in] Bench note: what log10(IC50) did Cc1ccc(O)cc1Nc1ccnc2c1C(=O)Nc1cc(C#N)ccc1N2 show?
[out] 0.73

[in] Bench note: what log10(IC50) did COCCCNCc1ccc2c(c1)NC(=O)c1c(Nc3cc(O)ccc3C)ccnc1N2 show?
[out] 0.60
